Settings: pampa; pH 5.0; 30.0 min; 50.0 µM
Grouping rule (Papp): bottom range: < 30 ×10⁻⁶ cm/s; center range: ≥ 30 ×10⁻⁶ cm/s and < 300 ×10⁻⁶ cm/s; top range: ≥ 300 ×10⁻⁶ cm/s

Solved cases (5 shown):
INSERT INTO results (molecule, class_label) VALUES
  ('Cc1ccc(Cl)cc1NS(=O)(=O)c1cc2c(cc1F)NC(=O)CC2', 'top range'),
  ('CNc1nc(-c2ccc3c(N)n[nH]c3c2)cc(N2C[C@@H](C(=O)NC3CCCCC3)CC[C@H]2C)n1', 'bottom range'),
  ('CN1CCN(c2ccc(Nc3c4ccccc4nc4ccccc34)cc2)CC1', 'bottom range'),
  ('CC(C)c1ccccc1-c1nc2c(c(NCc3ccc(-c4cccnc4)cc3)n1)CNC2', 'center range'),
  ('CCN(CC)CCOc1ccc(Cc2ccccc2)cc1', 'center range');

Where would CCn1cc(C(=O)N2CCN(c3cccc(Cl)c3)CC2)c2cc(OC)c(OC)cc2c1=O land among the classes by reported Papp? top range

Note: place this molecule into its band. Item: COc1ccccc1-c1nc(NCc2ccc(-c3cccnc3)cc2)c2ccccc2n1 top range

Class for CCN(CC)CCCC(C)Nc1cc(/C=C/c2ccccc2Cl)nc2cc(Cl)ccc12 (configuration not stated) ? center range

In plain terms, what class is CCOC(=O)C1CCN(c2ncc(-c3ccc4c(c3)OCCCO4)s2)CC1 ? top range

Could you place COc1ccc(NC(=O)CCCc2nnc3n(CCC(C)C)c(=O)c4sccc4n23)cc1Cl in its proper category? Many thanks. top range

Please report the category associated with c1ccc(CNc2nc(NCc3ccccc3)c3ccccc3n2)cc1 , nothing else. center range

* * *

Settings: pampa; pH 5.0; 30.0 min; 50.0 µM
// thresholds for Papp classes: L = under 300 ×10⁻⁶ cm/s, M = from 300 ×10⁻⁶ cm/s up to 700 ×10⁻⁶ cm/s, H = 700 ×10⁻⁶ cm/s and over

These recorded examples may help you get a feel for the data.
INSERT INTO results (smiles_text, class_label) VALUES
  ('CCCN1C(CC(C)C)=NS(=O)(=O)c2cc(NC(=O)c3cccs3)ccc21', 'L'),
  ('CCCCCn1cc2c(c1-c1ccc(Br)cc1)c(=O)n(C)c(=O)n2C', 'H'),
  ('O=C(O)c1ccc(Nc2nc(-c3cc4ccccc4oc3=O)cs2)cc1O', 'L'),
  ('COc1ccc(S(=O)(=O)N(CC(=O)Nc2ccc(C)cc2)c2ccc(C)cc2)cc1OC', 'M'),
  ('COCCNC(=O)c1ccc(-c2ncc3cnc(-c4cccc(F)c4)cn23)cc1', 'L');

Which class is correct for the following compound? OC1(c2ccc(Cl)cc2)CCN(Cc2c[nH]c3ccccc23)CC1 M

Could you place O=C(Nc1cccc(F)c1)c1cc(-c2ccc[nH]2)n[nH]1 in its proper category? Many thanks. L

Band for Cc1ccccc1N(C)C1CN([S+](=O)([O-])c2cccc(C(F)(F)F)c2)C1 ? H

* * *

Settings: pampa; pH 5.0; 30.0 min; 50.0 µM
Can you tell me Papp for the items I'm about to list?
Answers are plain numbers, in ×10⁻⁶ cm/s.

INSERT INTO measurements (molecule, value_measured) VALUES
  ('COc1ccc(-c2noc([C@@H]3Cc4nc[nH]c4CN3C(=O)NC3CCCCC3)n2)cc1', 58.2);

I have 3 molecules here; please give me Papp for each one.
1. O=C1Nc2ccc(-c3cccc(C(F)(F)F)c3)cc2C(=O)N2CCN(C(=O)COc3ccccc3)C[C@H]12
2. CC(C)(C)c1ccc(C(=O)Nc2ccc3c(c2)CCCN3C(=O)c2cccs2)cc1
3. COc1ccc(-n2nc(C3CCCN(C(=O)Cc4ccccn4)C3)[nH]c2=O)cc1 (stereo not given)

1. 859
2. 884
3. 71.4

The reported numbers originate from PubChem BioAssay AID1645871.
